So I've got a bunch of compounds here, and I need their normalized growth values.
Assay: chemical genetic growth profiling, strain panel (AID 1159580);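 note: tested at 20 µM; growth read once vehicle control cultures reached saturation at 30 °C; 1 = growth at the plate median or of vehicle wells; lower values mean less growth of the strain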
Details: S. cerevisiae deletion strains, growth OD, locus YPL256C, strain CLN2, active compounds read low
Screen size: about 5,500 compounds; about 2,000 (36%) were called active. About 18% were inconclusive and are not listed. Some of the results follow.
Lab note: record the figure alone, no unit after it.

Sample CC(=O)OC1CCC2(C)C3CC(=O)C4(C)C(CC5OC6(CCC(C)CO6)[C@@H](C)C54)C3CC[C@H]2C1 (stereo not given in full) ; normalized growth observed: 0.993

Sample COc1cnc(NS(=O)(=O)c2ccc(N)cc2)nc1 ; normalized growth observed: 0.99

Sample NCCc1cc(O)c(O)cc1O ; normalized growth observed: 0.971

Sample NC[C@H]1O[C@H](O[C@H]2C(O[C@@H]3O[C@H](CO)[C@@H](O)[C@H]3O)[C@@H](O)[C@H](N)C[C@@H]2N)[C@H](N)[C@@H](O)[C@@H]1O (stereo not given in full) ; normalized growth observed: 0.986

Sample O1[As]2O[As]3O[As]1O[As](O2)O3 ; normalized growth observed: 0.98

###

Experiment: chemical genetic growth profiling, strain panel (AID 1159580)
Settings: S. cerevisiae deletion strains, growth OD, locus YHR094C, strain hxt1, active compounds read low
Screen size: about 5,500 compounds; about 2,000 (36%) were called active. Not shown: some 18% with an inconclusive outcome. Some of the results follow.
So I've got a bunch of molecules here, and I need their normalized growth values.
Lab note: record the figure alone, no unit after it.

Sample CCOc1ccc(C(=O)c2cc(O)c(OC)c(OC)c2O)cc1 ; normalized growth observed: 1.01

Sample CC(=O)OCC1=C(C(=O)O)N2C(=O)[C@@H](NC(=O)CCCC(N)C(=O)O)C2SC1 (some centres undefined) ; normalized growth observed: 0.991

Sample CCOc1ccc(C(=O)c2ccc(O)c(O)c2O)cc1 ; normalized growth observed: 0.993

Sample COc1cc(NS(=O)(=O)c2ccc(N)cc2)ncn1 ; normalized growth observed: 0.987

###

So I've got a bunch of molecules here, and I need their normalized growth values.
Assay: chemical genetic growth profiling, strain panel (AID 1159580)
Settings: S. cerevisiae deletion strains, growth OD, locus YER155C, strain BEM2 (second series), active compounds read low
The campaign covered roughly 5,500 compounds. About 2,000 (36%) were called active. About 18% were inconclusive and are not listed. The list shows a part of the results.
Lab note: record the figure alone, no unit after it.

Sample C[C@]12CCC(=O)C=C1CCC1C2[C@@H](O)C[C@@]2(C)C1CC[C@]2(O)C(=O)COC(=O)CCC(=O)O (some centres undefined) ; normalized growth observed: 1.03

Sample CC1(C)S[C@@H]2[C@H](NC(=O)Cc3ccccc3)C(=O)N2[C@H]1C(=O)O ; normalized growth observed: 1.03

Sample OC(c1cc(C(F)(F)F)nc2c(C(F)(F)F)cccc12)C1CCCCN1 (centres undefined) ; normalized growth observed: 1.02

Sample CNCC[C@@H](Oc1ccccc1)c1ccccc1 ; normalized growth observed: 0.978

Sample CC1=CC2C(C(C)C)CCC(C)(O)C2CC1 (centres undefined) ; normalized growth observed: 0.875

Sample C=C(C)[C@H]1Cc2c(ccc3c2O[C@@H]2COc4cc(OC)c(OC)cc4[C@@H]2C3=O)O1 ; normalized growth observed: 1.07

Sample CC1(C)C=Cc2cc3ccc(=O)oc3cc2O1 ; normalized growth observed: 0.565

Sample CC(=O)CC1CCCCN1 (centres undefined) ; normalized growth observed: 1.01

Sample CC(=O)OCC(=O)[C@@]1(O)CCC2C3CCC4=CC(=O)CC[C@]4(C)C3[C@@H](O)C[C@@]21C (some centres undefined) ; normalized growth observed: 1.02

Sample CC(=O)[C@@]1(O)CCC2C3CCC4=CC(=O)CC[C@]4(C)C3CC[C@@]21C (some centres undefined) ; normalized growth observed: 0.995

Sample CCCCc1nc(Cl)c(CO)n1Cc1ccc(-c2ccccc2-c2nn[nH]n2)cc1 ; normalized growth observed: 0.968

Sample C=C(C)[C@@H]1CC[C@]2(CO)CC[C@]3(C)[C@H](CCC4[C@@]5(C)CC[C@H](O)C(C)(C)C5CC[C@]43C)C12 (some centres undefined) ; normalized growth observed: 0.984

Sample Cc1ccc(N(CC2=NCCN2)c2cccc(O)c2)cc1 ; normalized growth observed: 0.929

Sample CC(=O)O[C@H]1CC[C@]2(C)C3CC(=O)[C@]4(C)C(C(C)=O)=CCC4C3CC[C@H]2C1 (some centres undefined) ; normalized growth observed: 0.963

Sample NCCc1cc(O)c(O)cc1O ; normalized growth observed: 0.847

Sample OCCN1CCN(CCCN2c3ccccc3Sc3ccc(C(F)(F)F)cc32)CC1 ; normalized growth observed: 1

Sample COC1(C)CCC2OC2(C)CCC2C1CC2(C)C (centres undefined) ; normalized growth observed: 0.995

Sample C1CCC(C(CC2CCCCN2)C2CCCCC2)CC1 (centres undefined) ; normalized growth observed: 0.912

Sample CC[C@H]1OC(=O)[C@H](C)[C@@H](O[C@H]2C[C@@](C)(OC)[C@@H](O)[C@H](C)O2)[C@H](C)[C@@H](O[C@@H]2O[C@H](C)C[C@H](N(C)C)[C@H]2O)[C@](C)(O)C[C@@H](C)[C@@H]2N[C@@H](COCCOC)O[C@H]([C@H]2C)[C@]1(C)O ; normalized growth observed: 0.999

###

So I've got a bunch of molecules here, and I need their normalized growth values.
Assay: chemical genetic growth profiling, strain panel (AID 1159580);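 note: tested at 20 µM; growth read once vehicle control cultures reached saturation at 30 °C; 1 = growth at the plate median or of vehicle wells; lower values mean less growth of the strain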
Conditions: S. cerevisiae deletion strains, growth OD, locus YEL061C, strain CIN8, active compounds read low
About 2,000 (36%) of roughly 5,500 compounds were called active. Not shown: some 18% with an inconclusive outcome. The list shows a part of the results.
Lab note: record the figure alone, no unit after it.

Sample CCCCCCCCCCCCCCCCCCOCC(O)CO (stereo not drawn) ; normalized growth observed: 1.01

Sample CCc1cccc2c3c([nH]c12)C(CC)(CC(=O)O)OCC3 (stereo not drawn) ; normalized growth observed: 1

Sample CCCCc1nc(Cl)c(CO)n1Cc1ccc(-c2ccccc2-c2nn[nH]n2)cc1 ; normalized growth observed: 1.01

###

So I've got a bunch of compounds here, and I need their normalized growth values.
Assay: chemical genetic growth profiling, strain panel (AID 1159580);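 note: tested at 20 µM; growth read once vehicle control cultures reached saturation at 30 °C; 1 = growth at the plate median or of vehicle wells; lower values mean less growth of the strain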
Details: S. cerevisiae deletion strains, growth OD, locus YDR335W, strain msn5, active compounds read low
The whole screen tested about 5,500 compounds, of which about 2,000 (36%) were called active. Inconclusive results (about 18%) are left out. This is one part of the list.
Lab note: record the figure alone, no unit after it.

Sample COc1cnc(NS(=O)(=O)c2ccc(N)cc2)nc1 ; normalized growth observed: 0.993

Sample O=C(O)[C@H](O)[C@@](O)(Cc1ccc(O)cc1)C(=O)O ; normalized growth observed: 1

Sample COc1ccc(C(=O)c2ccc(O)cc2)c(O)c1O ; normalized growth observed: 0.983

Sample CN1CCN(CCCN2c3ccccc3Sc3ccc(C(F)(F)F)cc32)CC1 ; normalized growth observed: 0.0678

Sample CCOc1ccc(C(=O)c2cc(O)c(OC)c(OC)c2O)cc1 ; normalized growth observed: 0.999

Sample COc1cc2c(cc1OC)[C@@]13CCN4CC5=CCOC6CC(=O)N2C1[C@H]6[C@H]5C[C@H]43 (stereo partly specified) ; normalized growth observed: 0.996

###

Assay: chemical genetic growth profiling, strain panel (AID 1159580);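 note: tested at 20 µM; growth read once vehicle control cultures reached saturation at 30 °C; 1 = growth at the plate median or of vehicle wells; lower values mean less growth of the strain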
Settings: S. cerevisiae deletion strains, growth OD, locus YEL037C, strain rad23, active compounds read low
Screen size: about 5,500 compounds; about 2,000 (36%) were called active. About 18% were inconclusive and are not listed. The list shows a part of the results. *1 amine or outer side, *2 acyl side, *3 side chain or, on linkers, in order; H or OH if unused. Where a SMILES comes first, the peptide text is derived from it. Bridges are numbered along the chain shown (N, C = ends). [ ]: non-standard residue; d: D form. The star is where a group is joined. ξ: configuration not given here. ΔAla(E,3-NHCONH2) = NC(=O)N/C=C(/N)C(=O)O; X2 = NC1=NCCC(C(N[*:1])C(=O)[*:2])N1; ξβ3hOrn = NCCCC(N)CC(=O)*; Dap = NC[CH](N)C(=O)O
So I've got a bunch of compounds here, and I need their normalized growth values.
Lab note: record the figure alone, no unit after it.

Sample CC(=O)O[C@@H]1CC[C@]2(C)C3CC[C@]4(C)C(=O)CCC4C3CC[C@H]2C1 (some centres not stated) ; normalized growth observed: 0.985

Sample O=C(CCc1ccc(O)cc1)c1c(O)cc(O)cc1O[C@@H]1O[C@H](CO)[C@@H](O)[C@H](O)[C@H]1O ; normalized growth observed: 1.01

Sample CNC(Cc1c[nH]c2ccccc12)C(=O)O (configuration not stated) ; normalized growth observed: 0.978

Sample CC1=NN(c2ccccc2)C(=O)C1 ; normalized growth observed: 0.994

Sample CC(=O)OC1CCC2(C)C3CC(=O)C4(C)C(CC5OC6(CCC(C)CO6)[C@@H](C)C54)C3CC[C@H]2C1 (some centres not stated) ; normalized growth observed: 0.998

Sample CC(=O)O[C@H]1CC[C@]2(C)C3CC[C@@]4(C)C(CC5O[C@@]6(CCC(C)CO6)[C@@H](C)C54)C3CC[C@@H]2C1 (some centres not stated) ; normalized growth observed: 1.02

Sample CC(=O)OCC(=O)[C@@]12OC3(CCCC3)O[C@@H]1CC1C3CCC4=CC(=O)C=C[C@]4(C)[C@@]3(F)[C@@H](O)C[C@@]12C (some centres not stated) ; normalized growth observed: 1.02

Sample NCCNCCNCCN ; normalized growth observed: 0.994

Sample CCCCc1nc(Cl)c(CO)n1Cc1ccc(-c2ccccc2-c2nn[nH]n2)cc1 ; normalized growth observed: 0.985

Sample CC(=O)O[C@H]1CC[C@]2(C)C3CC(=O)[C@]4(C)C(C(C)=O)=CCC4C3CC[C@H]2C1 (some centres not stated) ; normalized growth observed: 1.01

Sample COc1cnc(NS(=O)(=O)c2ccc(N)cc2)nc1 ; normalized growth observed: 0.999

Sample CC1=CC2C(C(C)C)CCC(C)(O)C2CC1 (configuration not stated) ; normalized growth observed: 0.997

Sample NCCCC(N)CC(=O)NCC1NC(=O)C(CO)NC(=O)C(N)CNC(=O)C(C2CCN=C(N)N2)NC(=O)/C(=C\NC(N)=O)NC1=O (stereo not drawn) (H-[Dap]S[Dap](ξβ3hOrn)[ΔAla(E,3-NHCONH2)][X2]; lactam 1-C; configuration not given here) ; normalized growth observed: 1.02

Sample NC(=O)NO ; normalized growth observed: 1.01

Sample Cc1cc(=O)n(-c2ccccc2)n1C ; normalized growth observed: 0.995

Sample CC(=O)NO ; normalized growth observed: 0.977

Sample CN[C@@H]1[C@@H](O[C@H]2O[C@H](CO)[C@@H](N)[C@H](O)[C@H]2O)O[C@H]2C[C@@H](N)[C@H](O[C@H]3[C@H](O)[C@@H](O)[C@H](N)C[C@@H]3N)O[C@@H]2[C@@H]1O ; normalized growth observed: 1

Values were extracted from PubChem BioAssay AID1159580.
